test system: NCI-H522 lung; assay: NCI tumour cell line growth inhibition, 48 h
What GI50 was measured for each of the following?

Worked examples, 5 compounds total:
| compound | result |
| --- | --- |
| CN1C(NC(=O)c2ccc(Cl)nc2)=NS(=O)(=O)c2cc(Cl)ccc21 | > 100000 nM |
| CC12CCCC(CC(=O)c3[nH]c4ccccc4c31)C2 (configuration not stated) | 451 nM |
| CCCCNC(=O)NS(=O)(=O)c1ccc(N2N=C(c3ccc(C)cc3C)CC2c2ccc(N(C)C)cc2)cc1 (configuration not stated) | 3250 nM |
| COc1cc([C@@H]2c3cc4c(cc3C(O[C@@H]3O[C@@H]5CO[C@@H](c6cccs6)OC5[C@H](O)[C@H]3O)C3COC(=O)[C@@H]32)OCO4)cc(OC)c1O (some centres not stated) | 36.9 nM |
| Cn1cc(C2=C(c3cn(C)c4c(N)cccc34)C(=O)NC2=O)c2ccccc21 | 996 nM |

Give measured GI50 for every item shown.
1. CCC1(O)C(=O)OCc2c1cc1n(c2=O)Cc2cc3c(N)cccc3nc2-1 (configuration not stated)
2. Cn1cc(C2=C(c3cn(CCCN=C(N)N)c4ccccc34)C(=O)NC2=O)c2ccccc21
3. Cn1cc(-c2csc(-c3cccc(F)c3)n2)c2cccnc21
4. COc1cccc(N=Cc2c3ccccc3c(=O)n3c2oc2ccccc23)c1

1: 23.1 nM; 2: > 22200 nM; 3: 15900 nM; 4: 24000 nM

Quick batch: GI50 for everything below.
1. Cc1c2c(nn1-c1ccc(S(=O)(=O)/N=C3\SCC(=O)N3C(=O)c3ccccc3)cc1)-c1ccccc1CC2
2. COc1cccc(NCc2nnc(Nc3ccc(Cl)cc3)c3ccccc23)c1
3. C[C@]12CC[C@@H]3c4ccc(Oc5nc(N6CC6)nc(N6CC6)n5)cc4CC[C@H]3[C@@H]1CCC2=O

96200 nM
302 nM
1910 nM

====

test system: M14 melanoma; test: NCI tumour cell line growth inhibition, 48 h; in the data active = GI50 below about 0.43 µM; inactive = the rest
Hi there, use one of these labels in your reply, thanks! true (1) = active, false (0) = inactive

Previously resolved entries follow.
| molecule | tested system | class name |
| --- | --- | --- |
| COc1ccc(S(=O)(=O)N(Cc2ccc3c(n2)C=CC(C)(C)O3)C2CCC2)cc1OC | M14 melanoma | true (1) |
| N#C/C(C(=S)Nc1ccccc1)=C1/NN=C2c3ccccc3C(=O)NN21 | M14 melanoma | false (0) |
| CCC1(O)C(=O)OCc2c1cc1n(c2=O)Cc2cc3c(N)cccc3nc2-1 (configuration not stated) | M14 melanoma | true (1) |
| COc1ccc2cc(C(=O)/C=C/c3cccc(OC)c3OC)ccc2c1 | M14 melanoma | false (0) |
| C[C@]12CC[C@@H]3c4ccc(O)cc4C[C@@H](CCCCCCCCCS(=O)CCCC(F)(F)C(F)(F)F)[C@H]3[C@@H]1CC[C@@H]2O (some centres not stated) | M14 melanoma | false (0) |

Look up the recorded call for COc1ccc(C2CC(=O)c3c(O)c(OC)c(OC)c(OC)c3O2)c(O)c1 (configuration not stated) in this test.
true (1)

// next record CCCCCCCCCCC(O)C1CCC(C2CCC(C(O)CCCCC(O)CCCCCC(O)CC3=CC(C)OC3=O)O2)O1 (configuration not stated)
false (0)
